Source: ChEMBL document CHEMBL3301361

# PROCEDURE DETAILS: physchem
# TEST SETTINGS: octan-1-ol/water, pH 7.4, LogD7.4
Exercise: for every item that follows, state its recorded logD.

For COc1ccc(C(C)NC(=O)C2(N)CCN(c3ncnc4[nH]ccc34)CC2)cc1OC (centres undefined) , what is its reported logD? 1.8

Now consider COCC[C@H](Oc1ncnc2c1cnn2-c1ccccc1Cl)C(=O)Nc1ccc(C)cn1 . 3.6

Now consider Cc1ccc(C(=O)Nc2nccs2)cc1-n1cnc2ccc(N3CCN(C)CC3)cc2c1=O . 2.56

Now consider Cc1cnc(Nc2cc(N3CCN(C)CC3)nc(N[C@@H](C)c3ccc(F)cn3)n2)s1 . 2.9

Now consider C[C@@]1(C(=O)Nc2ccc(F)nc2)CCCN1c1nc(Nc2cc(C3CC3)n[nH]2)c2cccn2n1 . 3.16

Now consider Cc1ccc(NC(=O)c2cccc(C(F)(F)F)c2)cc1NC(=O)c1ccc2ncccc2c1 . 3.87

Now consider Cc1cccc(C(N)=O)c1NC(=O)c1ccccc1 . 1.09

Now consider CN(C)CC(O)COc1ccc(Nc2cc(Nc3ccc(F)cc3F)ncn2)cc1 (centres undefined) . 1.48

Now consider COC(=O)Nc1cnc(-c2ccc(F)cc2)n(CC(=O)NC(C(=O)C(F)(F)F)C(C)C)c1=O (centres undefined) . 1.82
